B1: TPR t1 (parent)
chain: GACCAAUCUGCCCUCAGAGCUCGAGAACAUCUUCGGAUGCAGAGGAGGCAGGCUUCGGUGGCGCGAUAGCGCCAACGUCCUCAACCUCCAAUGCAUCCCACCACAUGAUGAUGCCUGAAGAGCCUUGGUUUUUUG

variants of: B1; experiment: polymerase ribozyme fitness, log enrichment relative to wild type (log ratio); higher = more active; in vitro selection for triplet polymerase activity
Label y when polymerase ribozyme fitness (log ratio) >= -4; otherwise n.

Please review the entries below; each comes with its answer.
C3A G71C C114G	n
G71U C80A	n
G10U C34G C102U	n
U67G C80G G113A	n

Could you tell me if the measured polymerase ribozyme fitness (log ratio) of A41U U54C C124U reaches -4 or more?
y

Could you tell me if the measured polymerase ribozyme fitness (log ratio) of A18C C62G U87C A90C G110C C115A reaches -4 or more?
n

Could you tell me if the measured polymerase ribozyme fitness (log ratio) of G52A C62U reaches -4 or more?
y

Could you tell me if the measured polymerase ribozyme fitness (log ratio) of G69A G122U reaches -4 or more?
y

Could you tell me if the measured polymerase ribozyme fitness (log ratio) of U30A C73A reaches -4 or more?
n

Could you tell me if the measured polymerase ribozyme fitness (log ratio) of G61C G63C reaches -4 or more?
y

Could you tell me if the measured polymerase ribozyme fitness (log ratio) of A24G U38A U55A reaches -4 or more?
y

Could you tell me if the measured polymerase ribozyme fitness (log ratio) of G60A C79U U130A reaches -4 or more?
y

Could you tell me if the measured polymerase ribozyme fitness (log ratio) of G61A A66G C104A reaches -4 or more?
y
